Reference source: paper PMC9161374

System: SARS-CoV-2 replicon system (pBAC-SARS-CoV-2-Replicon-Luc)
assayExplanation: microbe, parasite or virus in culture
Assay type: cell-based
appliedConditions: Severe acute respiratory syndrome coronavirus 2, HEK-293T, 60 h, read-out: EC50 (Confidence 95%), replicon
Listed here are molecules together with their documented EC50.

{"molecule": "N#C[C@@]1(c2ccc3c(N)ncnn23)O[C@H](COC(=O)C2CC2)[C@@H](O)[C@H]1O", "scaleUnit": "nM", "EC50": 2170}
{"molecule": "CC(C)C(=O)OC[C@H]1O[C@@](C#N)(c2ccc3c(N)ncnn23)[C@H](OC(=O)C(C)C)[C@@H]1OC(=O)C(C)C", "scaleUnit": "nM", "EC50": 675}
{"molecule": "CC(=O)OC[C@H]1O[C@@](C#N)(c2ccc3c(N)ncnn23)[C@H](O)[C@@H]1O", "scaleUnit": "nM", "EC50": 1960}
{"molecule": "N#C[C@@]1(c2ccc3c(N)ncnn23)O[C@H](COC(=O)c2ccccc2)[C@@H](O)[C@H]1O", "scaleUnit": "nM", "EC50": 497}
{"molecule": "CC(C)C(=O)OC[C@H]1O[C@@](C#N)(c2ccc3c(N)ncnn23)[C@H](O)[C@@H]1O", "scaleUnit": "nM", "EC50": 521}
{"molecule": "CCC(C)[C@H](N)C(=O)OC[C@H]1O[C@@](C#N)(c2ccc3c(N)ncnn23)[C@H](O)[C@@H]1O (stereo partly shown)", "scaleUnit": "nM", "EC50": 950}
{"molecule": "N#C[C@@]1(c2ccc3c(N)ncnn23)O[C@H](CO)[C@@H](O)[C@H]1O [GS-441524, reference compound]", "scaleUnit": "nM", "EC50": 955}

* * *

System: SARS-CoV-2 (B.1)
assayExplanation: Anti-SARS-CoV-2 activity in Vero E6 cells (viral yield by qRT-PCR)
Assay type: cell-based
appliedConditions: Severe acute respiratory syndrome coronavirus 2, Vero C1008, B.1, 0.5 uM, Vero E6, replicates
Listed here are compounds together with their documented inhibition at 0.5 µM.

{"compound": "N#C[C@@]1(c2ccc3c(N)ncnn23)O[C@H](COC(=O)c2ccccc2)[C@@H](O)[C@H]1O", "measuredOn": "SARS-CoV-2 (B.1)", "inhibition at 0.5 µM, %": 0}
{"compound": "CC(C)C(=O)OC[C@H]1O[C@@](C#N)(c2ccc3c(N)ncnn23)[C@H](O)[C@@H]1O", "measuredOn": "SARS-CoV-2 (B.1)", "inhibition at 0.5 µM, %": 0}
{"compound": "CCC(CC)COC(=O)[C@H](C)N[P@](=O)(OC[C@H]1O[C@@](C#N)(c2ccc3c(N)ncnn23)[C@H](O)[C@@H]1O)Oc1ccccc1 [Remdesivir, remdesivir, reference compound]", "measuredOn": "SARS-CoV-2 (B.1)", "inhibition at 0.5 µM, %": 0}

* * *

Listed here are compounds together with their documented inhibition at 10 µM.
Test system: SARS-CoV-2 (Delta, B.1.617.2)
assayExplanation: microbe, parasite or virus in culture
Format: cell-based
appliedConditions: Severe acute respiratory syndrome coronavirus 2, Vero C1008, delta, 10 uM, Vero E6, replicates

{"compound": "N#C[C@@]1(c2ccc3c(N)ncnn23)O[C@H](CO)[C@@H](O)[C@H]1O [GS-441524, reference compound]", "measuredOn": "SARS-CoV-2 (Delta, B.1.617.2)", "inhibition at 10 µM, %": 98.7}
{"compound": "CC(C)C(=O)OC[C@H]1O[C@@](C#N)(c2ccc3c(N)ncnn23)[C@H](O)[C@@H]1O", "measuredOn": "SARS-CoV-2 (Delta, B.1.617.2)", "inhibition at 10 µM, %": 99.9}
{"compound": "N#C[C@@]1(c2ccc3c(N)ncnn23)O[C@H](COC(=O)c2ccccc2)[C@@H](O)[C@H]1O", "measuredOn": "SARS-CoV-2 (Delta, B.1.617.2)", "inhibition at 10 µM, %": 99.7}
{"compound": "CCCC(=O)OC[C@H]1O[C@@](C#N)(c2ccc3c(N)ncnn23)[C@H](O)[C@@H]1O", "measuredOn": "SARS-CoV-2 (Delta, B.1.617.2)", "inhibition at 10 µM, %": 99.7}

* * *

Test system: SARS-CoV-2 (Beta, B.1.351)
assayExplanation: microbe, parasite or virus in culture
Format: cell-based
appliedConditions: Severe acute respiratory syndrome coronavirus 2, Vero C1008, beta, 2 uM, Vero E6, replicates
Listed here are compounds together with their documented inhibition at 2 µM.
parameter: inhibition at 2 µM (%)

{"compound": "CCC(CC)C(=O)OC[C@H]1O[C@@](C#N)(c2ccc3c(N)ncnn23)[C@H](O)[C@@H]1O", "number": 29.7}
{"compound": "N#C[C@@]1(c2ccc3c(N)ncnn23)O[C@H](CO)[C@@H](O)[C@H]1O [GS-441524, reference compound]", "number": 85.3}
{"compound": "CC(C)C(=O)OC[C@H]1O[C@@](C#N)(c2ccc3c(N)ncnn23)[C@H](O)[C@@H]1O", "number": 99.6}
{"compound": "CCCC(=O)OC[C@H]1O[C@@](C#N)(c2ccc3c(N)ncnn23)[C@H](O)[C@@H]1O", "number": 97}
{"compound": "N#C[C@@]1(c2ccc3c(N)ncnn23)O[C@H](COC(=O)c2ccccc2)[C@@H](O)[C@H]1O", "number": 23.7}
{"compound": "CCC(CC)COC(=O)[C@H](C)N[P@](=O)(OC[C@H]1O[C@@](C#N)(c2ccc3c(N)ncnn23)[C@H](O)[C@@H]1O)Oc1ccccc1 [Remdesivir, remdesivir, reference compound]", "number": 65.2}

* * *

Tested on: SARS-CoV-2 (B.1) in Huh7 cells
assayExplanation: Anti-SARS-CoV-2 activity in Huh7 cells (viral yield by qRT-PCR)
Assay type: cell-based
appliedConditions: Severe acute respiratory syndrome coronavirus 2, Huh-7, read-out: EC50 (Confidence 95%) in Huh7 cells; B.1, MOI 0.05, 48 h

{"molecule": "N#C[C@@]1(c2ccc3c(N)ncnn23)O[C@H](COC(=O)c2ccccc2)[C@@H](O)[C@H]1O [ATV013]", "measuredOn": "SARS-CoV-2 (B.1) in Huh7 cells", "EC50 / nM": 964}
{"molecule": "CCCC(=O)OC[C@H]1O[C@@](C#N)(c2ccc3c(N)ncnn23)[C@H](O)[C@@H]1O [ATV009]", "measuredOn": "SARS-CoV-2 (B.1) in Huh7 cells", "EC50 / nM": 1040}
{"molecule": "N#C[C@@]1(c2ccc3c(N)ncnn23)O[C@H](CO)[C@@H](O)[C@H]1O [GS-441524, reference compound]", "measuredOn": "SARS-CoV-2 (B.1) in Huh7 cells", "EC50 / nM": 1760}
{"molecule": "CCC(CC)C(=O)OC[C@H]1O[C@@](C#N)(c2ccc3c(N)ncnn23)[C@H](O)[C@@H]1O [ATV011]", "measuredOn": "SARS-CoV-2 (B.1) in Huh7 cells", "EC50 / nM": 836}
{"molecule": "CC(C)CC(=O)OC[C@H]1O[C@@](C#N)(c2ccc3c(N)ncnn23)[C@H](O)[C@@H]1O [ATV017]", "measuredOn": "SARS-CoV-2 (B.1) in Huh7 cells", "EC50 / nM": 905}
{"molecule": "CC(C)C(=O)OC[C@H]1O[C@@](C#N)(c2ccc3c(N)ncnn23)[C@H](O)[C@@H]1O [ATV006]", "measuredOn": "SARS-CoV-2 (B.1) in Huh7 cells", "EC50 / nM": 1630}

* * *

assayExplanation: Thermodynamic solubility in water
Type: physicochemical
appliedConditions: ultrapure water, 25°C
parameter: solubility at 24 h (µg/mL)

{"smilesEntry": "CC(C)C(=O)OC[C@H]1O[C@@](C#N)(c2ccc3c(N)ncnn23)[C@H](O)[C@@H]1O", "parameter": "solubility at 24 h", "scaleUnit": "µg/mL", "number": 686}

* * *

Test system: SARS-CoV-2 (Delta, B.1.617.2)
assayExplanation: microbe, parasite or virus in culture
Format: cell-based
appliedConditions: Severe acute respiratory syndrome coronavirus 2, Vero C1008, delta, 0.25 uM, Vero E6, replicates

{"compound": "CCC(CC)COC(=O)[C@H](C)N[P@](=O)(OC[C@H]1O[C@@](C#N)(c2ccc3c(N)ncnn23)[C@H](O)[C@@H]1O)Oc1ccccc1 [Remdesivir, remdesivir, reference compound]", "inhibition at 0.25 µM / %": 0}
{"compound": "N#C[C@@]1(c2ccc3c(N)ncnn23)O[C@H](CO)[C@@H](O)[C@H]1O [GS-441524, reference compound]", "inhibition at 0.25 µM / %": 0}
{"compound": "CCCC(=O)OC[C@H]1O[C@@](C#N)(c2ccc3c(N)ncnn23)[C@H](O)[C@@H]1O", "inhibition at 0.25 µM / %": 0}
{"compound": "CC(C)CC(=O)OC[C@H]1O[C@@](C#N)(c2ccc3c(N)ncnn23)[C@H](O)[C@@H]1O", "inhibition at 0.25 µM / %": 0}
{"compound": "CCC(CC)C(=O)OC[C@H]1O[C@@](C#N)(c2ccc3c(N)ncnn23)[C@H](O)[C@@H]1O", "inhibition at 0.25 µM / %": 18.8}
{"compound": "CC(C)C(=O)OC[C@H]1O[C@@](C#N)(c2ccc3c(N)ncnn23)[C@H](O)[C@@H]1O", "inhibition at 0.25 µM / %": 13.4}
{"compound": "N#C[C@@]1(c2ccc3c(N)ncnn23)O[C@H](COC(=O)c2ccccc2)[C@@H](O)[C@H]1O", "inhibition at 0.25 µM / %": 0}
